The measurements presented in this section are drawn from PubChem BioAssay.

Experiment: blockers of DNA damage checkpoint Chk1 activation – imaging, HeLa, hydroxyurea, phospho-Chk1 nuclear intensity, primary screen (AID 1187); further: test concentration not given here
Settings: hydroxyurea-induced phospho-Chk1 immunofluorescence imaging, higher = more signal
Classification field: Fulfilled = z-score at or over -0.3; Not fulfilled = z-score under -0.3.

COMPOUND	CLASS LABEL
COC(=O)[C@@]1(Cc2ccc(OC)cc2)[C@H]2c3cc(C(=O)N4CCCC4)n(Cc4ccc(C)o4)c3C[C@H]2CN1C(=O)c1ccccc1	Not fulfilled
CCCCC(=C=CC[C@H](O)c1cccc(OCCO)c1)C[C@H](O)COCc1ccccc1	Fulfilled
CCCC=C(CCC)[C@@H](NC(=O)Cc1ccccc1)c1ccc(C(=O)OC)cc1	Not fulfilled

-- ask Given the entry Cc1ccc(N2C(=O)c3ccccc3[C@](C)(C(=O)NC(C)C)[C@@H]2c2ccc(CO)cc2)nc1 , answer whether its z-score meets or surpasses -0.3.
-- reply Fulfilled

-- ask Next record, please: O=C1O[C@@H](c2ccccc2)[C@@H](c2ccccc2)N2[C@@H](c3ccc(O)cc3)[C@]3(C(=O)Nc4ccc(C#CC5=CCCCC5)cc43)[C@@H](C(=O)Nc3nc4ccccc4s3)[C@H]12
-- reply Not fulfilled

-- ask Next record, please: C=CC[C@]1(C(=O)NCC(O)CO)N=C(c2ccc(OCCCO)cc2)O[C@H]1c1ccccc1N=[N+]=[N-] (stereo partly drawn)
-- reply Fulfilled

-- ask Next record, please: COC(=O)[C@]1(Cc2ccccc2N=[N+]=[N-])N=C(c2ccc(OCCCO)cc2)O[C@@H]1c1ccccc1
-- reply Not fulfilled

----------
Assay: COS7 lysate on small-molecule microarray, probe aHis, 635 nm (AID 1123);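 further: z-score combines 667nm fluorescence intensity with signal-to-noise per printed compound spot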
Settings: COS7 cell lysate, fluorescence, higher = more signal
RECORDED METRIC: composite z-score
Answers are plain numbers.

Would you please look over these solved cases?
COMPOUND	composite z-score
CCOC(=O)C1=CCC(c2cccc(Cl)c2)O1 (configuration not stated)	0.389
COCCOC(=O)N1C(=O)[C@@]2(c3cc(C#Cc4ccc(OC)cc4)ccc31)[C@H](c1ccc(OCCO)cc1)N1[C@H](c3ccccc3)[C@H](c3ccccc3)OC(=O)[C@H]1[C@@H]2C(N)=O	0.441
CO[C@H]1O[C@H](CO)[C@@H](OC(=O)Nc2ccc(C(F)(F)F)cc2)[C@H](OC(=O)Nc2ccccc2)[C@H]1OC(=O)Nc1ccccc1	2.68

Each of the following entries comes with a recorded value; kindly state composite z-score for each.
1. Cc1ccc(S[C@]2(C(=O)O)CC(=O)N(Cc3ccccc3C(F)(F)F)[C@@H]2c2ccc(CO)cc2)cc1
2. COC(=O)[C@@]1(Cc2ccc(F)cc2)[C@@H]2[C@@H](CC(=O)[C@H]2CC(=O)C(=O)N2CCCC2)CN1C(=O)c1ccccc1
3. [N-]=[N+]=NCc1ccccc1[C@H]1OC(c2ccc(OCCCO)cc2)=N[C@@]1(Cc1ccccc1N=[N+]=[N-])C(=O)NCCN1CCOCC1
4. NC(=O)[C@@H]1[C@H]2C(=O)O[C@H](c3ccccc3)[C@H](c3ccccc3)N2[C@H](c2ccccc2OCCO)[C@@]12C(=O)Nc1ccc(C#CCCO)cc12

-- reply
1: 1.79; 2: 3.17; 3: 2.32; 4: 0.663

----------
Assay: optical density change of DRC41 E. coli – strain DRC41, OD650, 24 h, E. coli filamentation project, primary screen (AID 1093);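 further: MC1000 strain lacking acrAB efflux and sulA so SOS filamentation is blocked; test concentration not given here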
Conditions: E. coli DRC41 growth, higher = more signal, called active from +8 up or from −8 down
Calls of active or inactive are those of the source.
RECORDED METRIC: z-score

Would you please look over these solved cases?
COMPOUND	z-score
CCCN1C(=O)[C@@H]2Cc3c([nH]c4ccccc34)[C@@H](c3cccc(O)c3)N2C1=O	0.317 (inactive)
Cc1ccc(N2C(=O)c3ccccc3[C@](C)(C(=O)NC(C)C)[C@@H]2c2ccc(CO)cc2)nc1	1.19 (inactive)
COC(=O)[C@@]1(Cc2ccc(OC)cc2)[C@H]2c3cc(C(=O)N(C)C)n(Cc4cc(F)c(F)c(F)c4)c3C[C@H]2CN1C(=O)c1ccccc1	-0.909 (inactive)
C[N+](C)(C)CCCC[C@@H]1NC(=O)[C@@H]2C[C@H](C(=O)NCCCCCNC(=O)CS)[C@H](c3cccc(OCCO)c3)N2C1=O	0.906 (inactive)
COCCOC(=O)N1C(=O)[C@@]2(c3cc(C#CCC(C(=O)OC)C(=O)OC)ccc31)[C@H](C(=O)N1CCCCCCC1)[C@H]1C(=O)O[C@H](c3ccccc3)[C@H](c3ccccc3)N1[C@@H]2c1ccc(O)cc1	1.04 (inactive)

Each of the following entries comes with a recorded value; kindly state z-score for each.
1. CC(C)C(CO)N1C(=O)[C@@H]2[C@H]3C(=O)OCC=C[C@H]3OC23C=CCN(Cn2nnc4ccccc42)C(=O)[C@@H]13 (stereo partly drawn)
2. COCCOC(=O)N1C(=O)[C@@]2(c3cc(C#CCC(C(=O)OC)C(=O)OC)ccc31)[C@H](c1ccc(OCCO)cc1)N1[C@H](c3ccccc3)[C@H](c3ccccc3)OC(=O)[C@H]1[C@@H]2C(N)=O
3. CC1CC/C=C\[C@H]2OC34C=CCN(Cc5ccccc5)C(=O)[C@H]3N(CCO)C(=O)[C@@H]4C2C(=O)O1 (stereo partly drawn)
4. CCOC(=O)C1=CC[C@@H](c2ccc(N(CC)CC)cc2)N(S(=O)(=O)c2ccc(C)cc2)[C@H]1c1ccc([N+](=O)[O-])cc1
5. COCCCNC(=O)[C@]1(Cc2ccccc2)N=C(c2ccc(OCCCO)cc2)O[C@@H]1c1ccccc1N=[N+]=[N-]
6. C=CCN1C(=O)[C@@]2(O[C@@H](CCO)[C@H]([Si](C)(C)c3ccc(OC)cc3)[C@H]2C)c2cc(NC(=O)[C@H](C)O)ccc21
7. COC(=O)[C@@]1(Cc2ccc(F)cc2)[C@H]2c3cc(C(=O)N4CCCC4)n(Cc4ccccc4)c3C[C@H]2CN1C(=O)c1ccccc1
8. O=C1O[C@H](c2ccccc2)[C@H](c2ccccc2)N2[C@H]1[C@@H](C(=O)N1CCN(c3ncccn3)CC1)[C@]1(C(=O)Nc3ccc(C#CCCO)cc31)[C@H]2c1ccc(OCCO)cc1

-- reply
1: 0.701 (inactive); 2: 0.237 (inactive); 3: 1.36 (inactive); 4: -0.532 (inactive); 5: 0.49 (inactive); 6: 0.571 (inactive); 7: 0.21 (inactive); 8: 0.132 (inactive)
